# method.summary: In vitro cytotoxicity by MTT assay in HaCaT cells
# Assay type: cell-based
# measurement.parameters: human, HaCaT keratinocyte cells, test concentration 0.125 mg/mL
measured.metric: cytotoxicity at 24 h, 0.125 mg/mL (%)
State just the number; it will be interpreted in %.

// query Tell me its cytotoxicity at 24 h, 0.125 mg/mL given Cc1ncc(CO)c(CN)c1O as the entry.
// result 4.55

----------
# method.summary: In vitro cytotoxicity by MTT assay in HaCaT cells
# Type: cell-based
# measurement.parameters: human, HaCaT keratinocyte cells, test concentration 0.25 mg/mL
measured.metric: cytotoxicity at 24 h, 0.25 mg/mL (%)
State just the number; it will be interpreted in %.

// query Tell me its cytotoxicity at 24 h, 0.25 mg/mL given Cc1ncc(CO)c(CN)c1O as the entry.
// result 5.68
